Tested on: CAKI-1 renal
Experiment: NCI-60 one-dose screen, 48 h (100 = growth as untreated, 0 = no growth, -100 = all killed)
Details: 10 µM unless noted
This is part of a sample that, as a whole, favours compounds with a hit. Of some 83,000 tested, about 20% had one in any assay.
reported_endpoint: growth (%)
Write down the numeric answer in % and omit the unit.

Cc1nc2nc(SCC(=O)O)[nH]c2c(=O)[nH]1
99.2

Query block: Look at this compound and give its reported growth. CCCSc1nc2ccc(C)cc2cc1/C=[N+](\[O-])c1ccccc1
Result block: 70.5

Query block: I am curious: what growth value has been reported for COc1cc2cc(Oc3ccc(NC(=O)Nc4cccc(C(F)(F)F)c4)cc3)c(C)nc2cc1OCCN1CCOCC1 ?
Result block: 56.2

Query block: Name the recorded growth for N#Cc1c(Nc2cccc(Cl)c2)sc(C(=O)c2cc3cc(Cl)ccc3o2)c1N .
Result block: 151

Query block: Look up growth for this compound: Cc1ccc(C(=O)NN2C(=O)CSC2c2cccc([N+](=O)[O-])c2)cn1 (stereo not given)
Result block: 79.5

* * *

System: NCI-H460 lung
Experiment: NCI-60 one-dose screen, 48 h (100 = growth as untreated, 0 = no growth, -100 = all killed)
Details: 10 µM unless noted
The panel holds about 83,000 compounds, 20% with a hit somewhere; the sample as a whole holds those more often.
reported_endpoint: growth (%)
Give a bare numeral; the unit % is implied.

Cc1ccc(C(CC(=O)O)c2c(C)[nH][nH]c2=O)cc1 (configuration not stated)
108
NC(=O)Nc1ccc2ncnc(Nc3ccc(Cl)cc3)c2c1
87.9
O=C1c2cccc3cccc(c23)C(=O)N1Nc1nc(N2CCOCC2)nc(N2CCN(c3ccccc3)CC2)n1
28.8
CCOC(=O)Cn1c(=O)c2c(c3ccccc3n2C)n2nnc(-c3ccccc3)c12
102
COC(=O)Nc1ccc(-c2nc(-c3cccc(OC)c3)c(-c3ccnc(Br)c3)[nH]2)cc1
61.2

Query block: Value lookup for growth; key = CCC(=O)Nc1ccc(-c2nc(-c3cccc(OC)c3)c(-c3ccnc(Br)c3)[nH]2)cc1
Result block: 49.4

Query block: Would you mind telling me what growth value was observed for CCOC(=O)NCCc1ccccc1 ?
Result block: 112

Query block: Would you mind telling me what growth value was observed for CC(C)OC(=O)Nc1ccc(-c2nc(-c3cccc(OCCN4CCOCC4)c3)c(-c3ccnc(Br)c3)[nH]2)cc1 ?
Result block: 30

Query block: Please report the recorded growth for Cc1ccc(-c2nc(N3CCN(C(=O)c4ccc(OC(F)(F)F)cc4)CC3)c3ccccc3n2)cc1 .
Result block: 92.8

Query block: // lookup growth for Cc1nn(-c2ccccc2)c(-n2ccnc2)c1/C=N/Nc1nc(-c2ccc(F)cc2)cs1
Result block: 83.3

Query block: Reported growth, compound Cc1ccc(C(C)C)cc1C(=O)C[n+]1ccccc1 : ____
Result block: 109

Query block: I am curious: what growth value has been reported for C=C(C)C1CCC2(C)OC2C1 (configuration not stated) ?
Result block: 103

Query block: growth lookup needed for CCOc1cccc(NC2=C(Br)C(=O)C(C)=C(C)C2=O)c1 , thanks.
Result block: 100

Query block: Record request: growth value, item COc1ccc(-c2c(C(=O)NS(C)(=O)=O)n(Cc3cccc(C(F)(F)F)c3)c3ccccc23)cc1
Result block: 89.7
